Assay: HT1080 cell viability loss – fluorescence readout (AID 620);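 further: cells exposed to compound overnight then 4 h with Alamar Blue; 0% = vehicle DMSO and 100% = killing control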
Details: at 10 µM, active compounds read high
Screen size: about 87,000 compounds; about 360 (0.41%) were called active. The entries come from a sample that favours actives as a whole.
Measure: cytotoxicity (%)
Give the value, in units of %, as a plain number.

Field: example entries. Status: answers known.
| Compound | cytotoxicity [%] |
| --- | --- |
| O=c1c2ccccc2c(C=NC2CCS(=O)(=O)C2)c(O)n1-c1ccccc1 (stereo not given) | -6.8 |
| COc1cccc(-n2c(Cc3cc(=O)[nH]c(=O)[nH]3)nnc2SCC(=O)N2CCCC2)c1 | 3.9 |
| CCOc1cc(S(=O)(=O)N2CCC(Cc3ccccc3)CC2)c(OCC)cc1-n1cnnn1 | -6.4 |
| CCOc1cc(S(=O)(=O)N2CCN(c3ccc(F)cc3)CC2)c(OCC)cc1-n1cnnn1 | 2.6 |

Now look at this entry.
Query Cc1cc(C)cc(C(=O)N2CC(=O)Nc3ccccc32)c1 yields cytotoxicity of 63.6

###

Assay: HT1080 cell viability loss – fluorescence readout (AID 620);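 further: cells exposed to compound overnight then 4 h with Alamar Blue; 0% = vehicle DMSO and 100% = killing control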
Conditions: at 10 µM, active compounds read high
Out of some 87,000 compounds screened, about 360 (0.41%) were called active. The sample as a whole holds a higher share of actives than the screen did.
Measure: cytotoxicity (%)
Hi! Could you send only the number? It should be in %, unit omitted.

Consider the worked cases shown below.
| Compound structure string | Value units | cytotoxicity |
| --- | --- | --- |
| Oc1ccc(-c2nc(-c3ccc(O)c(O)c3)cs2)cc1 | % | 61.2 |
| CCOC(=O)c1ccc(NC(=O)C(CC)(CC)C(=O)OCC)cc1 | % | -4.9 |
| Cc1cc(C)n(-c2nc3c(c(=O)[nH]c(=O)n3C)n2CCc2ccccc2)n1 | % | 15.7 |
| COC(=O)CN(Cc1ccco1)S(=O)(=O)c1ccccc1 | % | 1.2 |
| CCOc1ccc(NC(=O)c2cc3cc4ccc(OC)cc4nc3o2)cc1 | % | -4.9 |

Measured cytotoxicity, NS(=O)(=O)c1ccc(Nc2nc(-c3ccc4ccccc4c3)cs2)cc1 : -2.9

###

Assay: HT1080 cell viability loss – fluorescence readout (AID 620);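 further: cells exposed to compound overnight then 4 h with Alamar Blue; 0% = vehicle DMSO and 100% = killing control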
Conditions: at 10 µM, active compounds read high
In all, about 87,000 compounds went through this assay and about 360 (0.41%) were called active. This excerpt belongs to a sample that is enriched for actives.
Measure: cytotoxicity

Below: 5 compounds and their reported cytotoxicity.
| Compound | Measure | Observed measurement |
| --- | --- | --- |
| O=C(Nc1ccc(N2CCOCC2)cc1)c1cc2ccccc2o1 | cytotoxicity | 1.6% (inactive) |
| CCn1cnc2cc(NS(=O)(=O)c3ccc(C)cc3)ccc21 | cytotoxicity | 11.7% (inactive) |
| CCCC(=O)N1CCN(c2ccc(NC(=O)c3cc4ccccc4o3)cc2Cl)CC1 | cytotoxicity | 69.8% (active) |
| Cc1cc(C)c(C)c(S(=O)(=O)NCc2ccco2)c1C | cytotoxicity | 24.4% (inactive) |
| Cc1nc2ccccc2n1-c1nc(-c2ccco2)cc(C(F)(F)F)n1 | cytotoxicity | 65.2% (active) |

response.value for Cc1cccc(N2CCN(C(=O)c3ccncc3)CC2)c1C (field: cytotoxicity) = 21.3% (inactive)

# compound Cc1ccccc1NS(=O)(=O)c1cc(S(C)(=O)=O)ccc1Cl ; its cytotoxicity = -10.1% (inactive)

The compound CN1CCN(C(=O)c2ccc(C3SCC(=O)N3Cc3ccco3)cc2)CC1 (centres undefined) showed cytotoxicity equal to -8.2% (inactive)
